Reported IC50 by item:
target: HIV-integrase (Human immunodeficiency virus type 1 group M subtype B, UniProt P12497); construct: Recombinant integrase (0.26 ng) was incubated with the beads; assay: HIV-Integrase Inhibition Activity (SPA bead integration assay with P33 labeled target DNA); format: biochemical; conditions: in vitro activity, recombinant integrase, class symbols

CC(=O)N[C@H]1c2nc(C(=O)NCc3ccc(F)cc3)c(O)c(=O)n2C[C@H]2CC[C@]1(C)C2(C)C :: 0.01 to 0.1 µM

Continue with the compound presented below.
Per the records, this compound ( `CC1(C)[C@@H]2CC[C@@]1(C)[C@@H](NS(C)(=O)=O)c1nc(C(=O)NCc3ccc(F)cc3)c(O)c(=O)n1C2` ) has IC50 equal to > 0.1 µM
